Experiment: chemical genetic growth profiling, strain panel (AID 1159580);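 also: tested at 20 µM; growth read once vehicle control cultures reached saturation at 30 °C; 1 = growth at the plate median or of vehicle wells; lower values mean less growth of the strain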
Settings: S. cerevisiae deletion strains, growth OD, locus YNL222W, strain SSU72, hits give low values
About 2,000 (36%) of roughly 5,500 compounds were called active. About 18% were inconclusive and are not listed. The list shows a part of the results.
quantityName: normalized growth
// no unit string in output, number only

>>> datavalue("Cc1c(C)c(C)c(C(=O)c2ccc(N=Cc3cc(Cl)cc(Cl)c3O)cc2)c(C)c1C")
0.94

Which normalized growth is reported for this molecule? Cc1cc(/C(N)=N\OC(=O)C(C)(C)C)cc(/C(N)=N\OC(=O)C(C)(C)C)c1
0.979

* * *

Experiment: chemical genetic growth profiling, strain panel (AID 1159580);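 also: tested at 20 µM; growth read once vehicle control cultures reached saturation at 30 °C; 1 = growth at the plate median or of vehicle wells; lower values mean less growth of the strain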
Settings: S. cerevisiae deletion strains, growth OD, locus YLR403W, strain SFP1, hits give low values
The whole screen tested about 5,500 compounds, of which about 2,000 (36%) were called active. Not shown: some 18% with an inconclusive outcome. This is one part of the list.
Lab note: anything with normalized growth below 0.9 is marked class 1; values at 0.9 or higher are marked class 0.

>>> discretelabel("CC(=O)c1ccc(Cl)c(N=Cc2cc(Cl)cc(Cl)c2O)c1")
"class 1"
>>> discretelabel("CCOC(=O)c1ccc(Cl)c(N=Cc2cc(Cl)cc(Cl)c2O)c1")
"class 1"
>>> discretelabel("O=C(NOC(=O)c1ccccc1)c1ccccc1")
"class 1"
>>> discretelabel("Cc1c(C)c(C)c(C(=O)c2ccc(N=Cc3cc(Cl)cc(Cl)c3O)cc2)c(C)c1C")
"class 1"
>>> discretelabel("Cc1onc(-c2c(Cl)cccc2Cl)c1C(=O)O/N=C(/N)Cc1ccc(C(C)(C)C)cc1")
"class 0"

Here's an entry: N#CSCC(=O)c1ccccc1 . Is its normalized growth below 0.9?
class 1

Cc1ccc2nc(-c3ccc4c(c3)OCCO4)cn2c1 , same question.
class 0

Then this molecule: Cc1nn(-c2cccc(Cl)c2)c2oc(=O)cc(C(F)(F)F)c12
class 1

Can you handle NC(=S)N/N=C1/CCCc2ccccc21 next?
class 1

What about O=C1c2cccc3c(Sc4ccccc4)ccc(c23)C(=O)N1NCCO ?
class 1

Another: Clc1ccc(CN2CCN(c3cccc4[nH]ccc34)CC2)cc1Cl
class 0

* * *

Assay: chemical genetic growth profiling, strain panel (AID 1159580);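 also: tested at 20 µM; growth read once vehicle control cultures reached saturation at 30 °C; 1 = growth at the plate median or of vehicle wells; lower values mean less growth of the strain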
Settings: S. cerevisiae deletion strains, growth OD, locus YDR502C, strain sam2, hits give low values
About 2,000 (36%) of roughly 5,500 compounds were called active. Roughly 18% stayed inconclusive and do not appear here. The list shows a part of the results.
quantityName: normalized growth

Previously resolved entries follow.
>>> datavalue("C=C1c2c(Cl)ccc(O)c2C(O)=C2C(=O)[C@]3(O)C(O)=C(C(N)=O)C(=O)[C@@H](N(C)C)[C@@H]3[C@@H](O)[C@H]12")
"0.98 (inactive)"
>>> datavalue("CN(C)c1ccc(O)c2c1C[C@H]1C[C@H]3[C@H](N(C)C)C(=O)C(C(N)=O)=C(O)[C@@]3(O)C(=O)C1=C2O")
"0.986 (inactive)"
>>> datavalue("CN(C)[C@@H]1C(=O)C(C(N)=O)=C(O)[C@@]2(O)C(=O)C3=C(O)c4c(O)cccc4[C@@](C)(O)[C@H]3[C@H](O)[C@@H]12")
"0.994 (inactive)"
>>> datavalue("C[C@H]1c2cccc(O)c2C(O)=C2C(=O)[C@]3(O)C(O)=C(C(N)=O)C(=O)[C@@H](N(C)C)[C@@H]3[C@@H](O)[C@@H]21")
"0.979 (inactive)"
>>> datavalue("COC(=O)c1c(C)c2c(c(C)c1O)OC(=O)c1c(C)c(Cl)c(O)c(Cl)c1O2")
"0.96 (inactive)"

Turning now to a further record.
May I ask what normalized growth has been recorded for CC(C)CCCC(C)[C@H]1CCC2C3CC=C4C[C@@H](O)CC[C@]4(C)C3CC[C@@]21C (some centres undefined) ?
0.974 (inactive)

Measured values drawn from PubChem BioAssay AID1159580 for this set.
